# Assay text: agonists of human NTR1, primary screen, imaging, U2OS cells, beta-arrestin-GFP, high content (AID 493036)
# Details: NTR1-U2OS beta-arrestin-GFP spot imaging, agonist mode; measured here: cell count, cytotoxicity flag; at 20 µM
In all, about 330,000 compounds went through this assay and about 560 (0.17%) were called active. This excerpt belongs to a sample that is enriched for actives.
Reported property: cell count

Compound | Reported property | Result
COc1cccc(N2C(=O)NC(=O)/C(=C\c3ccc([N+](=O)[O-])s3)C2=O)c1 | cell count | 25 cells
O=C(CCCn1c(=O)[nH]c2cc(Cl)ccc2c1=O)N1CCC2(CC1)OCCO2 | cell count | 62 cells
O=C1NC(=O)N(c2ccccc2)C(=O)/C1=C/c1ccc([N+](=O)[O-])s1 | cell count | 47 cells
CC1CCCCN1Cc1cccnc1 (stereo unspecified) | cell count | 41 cells
O=C1NC(=O)N(CCc2ccc(F)cc2)C(=O)/C1=C/C=C/c1ccccc1 | cell count | 50 cells
O=C(O)COc1ccccc1/C=C1\C(=O)NC(=O)N(CCC2=CCCCC2)C1=O | cell count | 52 cells

----------
# Assayed system: Neurotensin receptor type 1 (Homo sapiens) (UniProt P30989)
# Sequence (P30989 whole entry, looked up): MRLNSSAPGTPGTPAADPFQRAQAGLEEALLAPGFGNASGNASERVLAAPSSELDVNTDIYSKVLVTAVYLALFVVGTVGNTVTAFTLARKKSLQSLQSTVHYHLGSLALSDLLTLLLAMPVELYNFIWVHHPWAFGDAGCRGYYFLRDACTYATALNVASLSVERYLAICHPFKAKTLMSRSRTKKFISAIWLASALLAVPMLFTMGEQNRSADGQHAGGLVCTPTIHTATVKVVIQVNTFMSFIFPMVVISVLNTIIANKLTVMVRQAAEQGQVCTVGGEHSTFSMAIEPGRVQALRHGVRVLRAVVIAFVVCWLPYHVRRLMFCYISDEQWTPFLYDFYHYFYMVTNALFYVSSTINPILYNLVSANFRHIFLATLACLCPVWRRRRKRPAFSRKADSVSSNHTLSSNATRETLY
# Assay text: agonists of human NTR1, primary screen, imaging, U2OS cells, beta-arrestin-GFP, high content (AID 493036)
# Details: NTR1-U2OS beta-arrestin-GFP spot imaging, agonist mode; at 20 µM
The campaign covered roughly 330,000 compounds. About 560 (0.17%) were called active.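 The calls were made as follows: active = activation at or above 40% of the spot to cytoplasm intensity ratio, with at least 20 cells analyzed; inconclusive = wells under 20 cells, flagged as cytotoxic or low count; inactive = the rest.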 Shown is part of a subset that was picked to be rich in actives.
Possible outcomes: 1.0 = active, 0.0 = inactive

Compound | Assayed system | Label class
O=C(O)COc1ccccc1/C=C1\C(=O)NC(=O)N(CCC2=CCCCC2)C1=O | Neurotensin receptor type 1 (Homo sapiens) (UniProt P30989) | 0.0
Cc1cccc(N2C(=O)NC(=O)/C(=C\c3cnn(-c4ccccc4)c3)C2=O)c1 | Neurotensin receptor type 1 (Homo sapiens) (UniProt P30989) | 1.0
COC(=O)C1=C(c2cc3ccccc3s2)C[C@@H]2CC[C@H]1N2C(=O)NCCO | Neurotensin receptor type 1 (Homo sapiens) (UniProt P30989) | 0.0
O=C1NC(=O)N(CCc2ccc(F)cc2)C(=O)/C1=C/C=C/c1ccccc1 | Neurotensin receptor type 1 (Homo sapiens) (UniProt P30989) | 1.0
COc1ccc(C(=O)C2CN(C)CC2C(=O)c2ccc(OC)cc2)cc1 (stereo not drawn) | Neurotensin receptor type 1 (Homo sapiens) (UniProt P30989) | 0.0
O=C(CCCn1c(=O)[nH]c2cc(Cl)ccc2c1=O)N1CCC2(CC1)OCCO2 | Neurotensin receptor type 1 (Homo sapiens) (UniProt P30989) | 0.0
O=C1NC(=O)N(Cc2ccco2)C(=O)/C1=C\c1ccc(-c2ccc(F)cc2)o1 | Neurotensin receptor type 1 (Homo sapiens) (UniProt P30989) | 0.0
COc1cccc(N2C(=O)NC(=O)/C(=C\c3ccc([N+](=O)[O-])s3)C2=O)c1 | Neurotensin receptor type 1 (Homo sapiens) (UniProt P30989) | 0.0
